METHOD SUMMARY: Rat PK experiment in vivo
TEST PARAMETERS: iv, 1 mg/kg
MEASURED ATTRIBUTE: clearance (mL/min/kg)

[[record]]
record_smiles = "CCN1C(=O)N(CCC(C)C)C2(CCN(Cc3cc(Cl)ccc3O)CC2)C1=O"
value_measured = 152

